Catalogue of molecules with associated MIC of antibiotic in the presence of NAB739
Test system: A. baumannii F264
test summary: E-test MIC of antibiotics on Mueller Hinton agar containing increasing concentrations of NAB739
Assay type: cell-based, Acinetobacter baumannii
condition summary: NAB 739 1 μg/ml
Record the value in µg/mL, omitting the unit from your answer.

CC(=O)O[C@H]1C[C@@]2(C)[C@@H](C[C@@H](O)[C@H]3[C@@]4(C)CC[C@@H](O)[C@@H](C)[C@@H]4CC[C@@]32C)/C1=C(\CCC=C(C)C)C(=O)O : 1

Consider the additional molecule presented here.
Need MIC of antibiotic in the presence of NAB739, item `CC[C@H]1OC(=O)[C@H](C)[C@@H](O[C@H]2C[C@@](C)(OC)[C@@H](O)[C@H](C)O2)[C@H](C)[C@@H](O[C@@H]2O[C@H](C)C[C@H](N(C)C)[C@H]2O)[C@](C)(OC)C[C@@H](C)C(=O)[C@H](C)[C@@H](O)[C@]1(C)O`
0.125

---

System: E. coli IH3080
test summary: E-test MIC with or without NAB7061 (4 μg/ml), Mueller-Hinton agar
Format: cell-based, Escherichia coli
readout name: Sensitization factor to antibiotic (MIC without / with 4 μg/ml of NAB 7061)
Number only, no unit.

Need Sensitization factor to antibiotic (MIC without / with 4 μg/ml of NAB 7061), item CN[C@H](CC(C)C)C(=O)N[C@H]1C(=O)N[C@@H](CC(N)=O)C(=O)N[C@H]2C(=O)N[C@H]3C(=O)N[C@H](C(=O)N[C@H](C(=O)O)c4cc(O)cc(O)c4-c4cc3ccc4O)[C@H](O)c3ccc(c(Cl)c3)Oc3cc2cc(c3O[C@@H]2O[C@H](CO)[C@@H](O)[C@H](O)[C@H]2O[C@H]2C[C@](C)(N)[C@H](O)[C@H](C)O2)Oc2ccc(cc2Cl)[C@H]1O [Vancomycin]
2.5

---

test summary: in vivo
condition summary: male, Sprague-Dawley, rat, plasma and urine, iv, 1 mg/kg
Where a SMILES comes first, the peptide text is derived from it. Bridges are numbered along the chain shown (N, C = ends). [ ]: non-standard residue; d: D form. The star is where a group is joined. Octanoyl = CCCCCCCC(=O)*; Dab = NCC[C@H](N)C(=O)O
readout name: CL renal (mL/min/kg)
Record the value in mL/min/kg, omitting the unit from your answer.

Need CL renal, item CCCCCCCC(=O)N[C@H](C(=O)N[C@H](CO)C(=O)N[C@H]1CCNC(=O)[C@H]([C@@H](C)O)NC(=O)[C@H](CCN)NC(=O)[C@H](CCN)NC(=O)[C@H](CC(C)C)NC(=O)[C@@H](Cc2ccccc2)NC(=O)[C@H](CCN)NC1=O)[C@@H](C)O [NAB 739] (Octanoyl-T[dS][Dab][Dab][dF]L[Dab][Dab]T; lactam 3-C)
0.53

---

Tested on: A. baumannii F264
test summary: E-test MIC of antibiotics on Mueller Hinton agar containing increasing concentrations of NAB739
Type: cell-based, Acinetobacter baumannii
condition summary: NAB 739 0 μg/ml
Catalogue of molecules with associated MIC of antibiotic in the presence of NAB739
Record the value in µg/mL, omitting the unit from your answer.

CO[C@H]1/C=C/O[C@@]2(C)Oc3c(C)c(O)c4c(O)c(c(/C=N/N5CCN(C)CC5)c(O)c4c3C2=O)NC(=O)/C(C)=C\C=C\[C@H](C)[C@H](O)[C@@H](C)[C@@H](O)[C@@H](C)[C@H](OC(C)=O)[C@@H]1C [Rifampin] : 12

Consider the additional molecule presented here.
Need MIC of antibiotic in the presence of NAB739, item CC[C@H]1OC(=O)[C@H](C)[C@@H](O[C@H]2C[C@@](C)(OC)[C@@H](O)[C@H](C)O2)[C@H](C)[C@@H](O[C@@H]2O[C@H](C)C[C@H](N(C)C)[C@H]2O)[C@](C)(OC)C[C@@H](C)C(=O)[C@H](C)[C@@H](O)[C@]1(C)O [Clarithromycin]
6

---

test summary: in vivo
condition summary: male, Sprague-Dawley, rat, plasma, iv, 1 mg/kg
Where a SMILES comes first, the peptide text is derived from it. Bridges are numbered along the chain shown (N, C = ends). [ ]: non-standard residue; d: D form. The star is where a group is joined. Octanoyl = CCCCCCCC(=O)*; Dab = NCC[C@H](N)C(=O)O
readout name: Vd (L/kg)
Record the value in L/kg, omitting the unit from your answer.

Need Vd, item CCCCCCCC(=O)N[C@H](C(=O)N[C@H](CO)C(=O)N[C@H]1CCNC(=O)[C@H]([C@@H](C)O)NC(=O)[C@H](CCN)NC(=O)[C@H](CCN)NC(=O)[C@H](CC(C)C)NC(=O)[C@@H](Cc2ccccc2)NC(=O)[C@H](CCN)NC1=O)[C@@H](C)O [NAB 739] (Octanoyl-T[dS][Dab][Dab][dF]L[Dab][Dab]T; lactam 3-C)
0.222

---

test summary: in vivo
condition summary: male, Sprague-Dawley, rat, plasma and urine, iv, 1 mg/kg
Where a SMILES comes first, the peptide text is derived from it. Bridges are numbered along the chain shown (N, C = ends). [ ]: non-standard residue; d: D form. The star is where a group is joined. Octanoyl = CCCCCCCC(=O)*; Dab = NCC[C@H](N)C(=O)O; Abu = CC[C@H](N)C(=O)O
readout name: CL renal (mL/min/kg)
Record the value in mL/min/kg, omitting the unit from your answer.

Need CL renal, item CCCCCCCC(=O)N[C@H](C(=O)N[C@@H](CC)C(=O)N[C@H]1CCNC(=O)[C@H]([C@@H](C)O)NC(=O)[C@H](CCN)NC(=O)[C@H](CCN)NC(=O)[C@H](CC(C)C)NC(=O)[C@@H](Cc2ccccc2)NC(=O)[C@H](CCN)NC1=O)[C@@H](C)O [NAB 7061] (Octanoyl-T[Abu][Dab][Dab][dF]L[Dab][Dab]T; lactam 3-C)
0.28

---

System: E. coli IH3080
test summary: Sensitization to rifampin: growth inhibition around wells on LB plates containing rifampin
Assay type: cell-based, Escherichia coli
condition summary: 4 μg of compound; rifampin 0 μg/ml
Catalogue of substances with associated growth inhibition around a well in the presence of rifampin
Record the value in square millimeters, omitting the unit from your answer.

# annotated cases, reported growth inhibition around a well in the presence of rifampin shown
OA-Thr-DThr-cy[Dab-Dab-DPhe-Thr-Dab-Dab-Thr-] [NAB 737] : 133
OA-Thr-Thr-DSer-cy[Dab-Dab-DPhe-Leu-Dab-Dab-Thr-] [NAB 748] : 113
OA-Thr-Asn-cy[Dab-Dab-DPhe-Leu-Dab-Dab-Thr-] [NAB 746] : 0
DA-cy[Dab-Dab-DPhe-Leu-Dab-Dab-Thr-] [NAB 736] : 0
OA-Thr-Abu-cy[Dab-Dab-DPhe-Leu-Dab-Abu-Thr-] [NAB 709] : 0
OA-Thr-Abu-cy[Dab-Abu-DPhe-Leu-Dab-Dab-Thr-] [NAB 710] : 0
MHA-Dab-Thr-Dab-cy[Dab-Dab-DPhe-Leu-Abu-Abu-Thr-] [NAB 721] : 0
MHA-Thr-Abu-cy[Dab-Dab-DPhe-Leu-Dab-Dab-Thr-] [NAB 706] : 5
OA-Thr-Abu-cy[Dab-Dab-DLeu-Leu-Dab-Dab-Thr-] [NAB 718] : 0
OA-Thr-Dab-cy[Dab-Dab-DPhe-Leu-Abu-Dab-Thr-] [NAB 716] : 13

Need growth inhibition around a well in the presence of rifampin, item OA-Abu-cy[Dab-Dab-DPhe-Leu-Dab-Dab-Thr-] [NAB 713]
0

Need growth inhibition around a well in the presence of rifampin, item OA-Thr-DAla-cy[Dab-Dab-DPhe-Thr-Dab-Dab-Thr-] [NAB 738]
0

---

System: P. aeruginosa ATCC 27853
test summary: E-test MIC of antibiotics on Mueller Hinton agar containing increasing concentrations of NAB739
Type: cell-based, Pseudomonas aeruginosa
condition summary: NAB 739 […]
Catalogue of compounds with associated MIC of antibiotic in the presence of NAB739
Record the value in µg/mL, omitting the unit from your answer.

# annotated cases, reported MIC of antibiotic in the presence of NAB739 shown
CO[C@H]1/C=C/O[C@@]2(C)Oc3c(C)c(O)c4c(O)c(c(/C=N/N5CCN(C)CC5)c(O)c4c3C2=O)NC(=O)/C(C)=C\C=C\[C@H](C)[C@H](O)[C@@H](C)[C@@H](O)[C@@H](C)[C@H](OC(C)=O)[C@@H]1C : 32
CC[C@H]1OC(=O)[C@H](C)[C@@H](O[C@H]2C[C@@](C)(OC)[C@@H](O)[C@H](C)O2)[C@H](C)[C@@H](O[C@@H]2O[C@H](C)C[C@H](N(C)C)[C@H]2O)[C@](C)(OC)C[C@@H](C)C(=O)[C@H](C)[C@@H](O)[C@]1(C)O : 32

Consider the additional compound presented here.
Need MIC of antibiotic in the presence of NAB739, item `C[C@@H](O)[C@H]1C(=O)N2C(C(=O)O)=C(S[C@@H]3CN[C@H](C(=O)N(C)C)C3)[C@H](C)[C@H]12`
0.25
